Tgt: hepatic lipase (HL) (Homo sapiens (Human))
Sequence (P11150 23-499, species assumed): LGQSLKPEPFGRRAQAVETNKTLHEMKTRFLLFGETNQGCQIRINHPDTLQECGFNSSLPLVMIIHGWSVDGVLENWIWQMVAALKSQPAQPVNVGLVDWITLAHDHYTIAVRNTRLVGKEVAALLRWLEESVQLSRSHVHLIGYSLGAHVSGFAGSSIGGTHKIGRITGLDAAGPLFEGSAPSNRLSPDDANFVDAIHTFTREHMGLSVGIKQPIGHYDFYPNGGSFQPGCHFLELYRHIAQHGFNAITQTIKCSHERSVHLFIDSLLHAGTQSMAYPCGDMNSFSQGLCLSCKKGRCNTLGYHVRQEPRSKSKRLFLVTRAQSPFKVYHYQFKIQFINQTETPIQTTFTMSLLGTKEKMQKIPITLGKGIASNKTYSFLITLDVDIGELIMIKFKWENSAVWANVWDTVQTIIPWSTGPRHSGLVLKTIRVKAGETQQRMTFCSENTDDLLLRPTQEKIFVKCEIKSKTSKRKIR
Test protocol: HL assay: hepatic lipase activity with fluorescent substrate A10070 in DMPG vesicles
Format: biochemical
Here the recorded IC50 is given for each entry.
Measurement kind: IC50 (nM)

1) COCCNC(=O)c1cccc(-c2ccc3nc(C(C(=O)NCCS(N)(=O)=O)S(=O)(=O)CCC(F)(F)F)sc3c2)c1 (centres unmarked) | 170
2) Cc1cc2nc(C(C(=O)NCCS(N)(=O)=O)S(=O)(=O)Cc3ccccc3)sc2cc1-c1ccc(C(=O)OC(C)(C)C)cc1 (centres unmarked) | 3
3) COCCN(C)C(=O)c1ccc(-c2ccc3nc(C(C(=O)NCCS(N)(=O)=O)S(=O)(=O)Cc4ccc(OC(F)(F)F)cc4)sc3c2)cc1 (centres unmarked) | 21.7
4) NS(=O)(=O)CCNC(=O)C(c1nc2ccc(-c3cnn(CCN4CCOCC4)c3)cc2s1)S(=O)(=O)CCC(F)(F)F (centres unmarked) | 612
5) Cc1nnc(-c2ccc(-c3ccc4nc(C(C(=O)NCCS(N)(=O)=O)S(C)(=O)=O)sc4c3)cc2)o1 (centres unmarked) | 15.4
6) COCCS(=O)(=O)C(C(=O)NCCS(N)(=O)=O)c1nc2ccc(-c3ccc(C(=O)N4CCC(F)(F)C4)cc3)cc2s1 (centres unmarked) | 60
7) Cc1cc2nc(C(C(=O)NCCS(N)(=O)=O)S(=O)(=O)Cc3ccccc3)sc2cc1-c1ccc(C(=O)N2CCOCC2)cc1 (centres unmarked) | 400
8) COCCS(=O)(=O)C(C(=O)NCCS(N)(=O)=O)c1nc2c(F)cc(-c3ccccc3)cc2s1 (centres unmarked) | 18
9) CS(=O)(=O)C(C(=O)NCCS(N)(=O)=O)c1nc2ccc(-c3ccnc(O)c3F)cc2s1 (centres unmarked) | 238
10) CN1CCOc2cc(-c3ccc4nc(C(C(=O)NCCS(N)(=O)=O)S(C)(=O)=O)sc4c3)ccc21 (centres unmarked) | 50
11) COCCN(C)C(=O)c1ccc(-c2ccc3nc(C(C(=O)NCCS(N)(=O)=O)S(C)(=O)=O)sc3c2)cc1F (centres unmarked) | 94.4
12) NS(=O)(=O)CCNC(=O)C(c1nc2ccc(-c3cccc(C(=O)N4CCC(O)CC4)c3)cc2s1)S(=O)(=O)CCC(F)(F)F (centres unmarked) | 136
13) COCCS(=O)(=O)C(C(=O)NCc1nnc(C)o1)c1nc2ccc(-c3ccccc3)cc2s1 (centres unmarked) | 17.5

* * *

Tgt: Endothelial lipase (EL) (Homo sapiens (Human))
Sequence (Q9Y5X9 21-500): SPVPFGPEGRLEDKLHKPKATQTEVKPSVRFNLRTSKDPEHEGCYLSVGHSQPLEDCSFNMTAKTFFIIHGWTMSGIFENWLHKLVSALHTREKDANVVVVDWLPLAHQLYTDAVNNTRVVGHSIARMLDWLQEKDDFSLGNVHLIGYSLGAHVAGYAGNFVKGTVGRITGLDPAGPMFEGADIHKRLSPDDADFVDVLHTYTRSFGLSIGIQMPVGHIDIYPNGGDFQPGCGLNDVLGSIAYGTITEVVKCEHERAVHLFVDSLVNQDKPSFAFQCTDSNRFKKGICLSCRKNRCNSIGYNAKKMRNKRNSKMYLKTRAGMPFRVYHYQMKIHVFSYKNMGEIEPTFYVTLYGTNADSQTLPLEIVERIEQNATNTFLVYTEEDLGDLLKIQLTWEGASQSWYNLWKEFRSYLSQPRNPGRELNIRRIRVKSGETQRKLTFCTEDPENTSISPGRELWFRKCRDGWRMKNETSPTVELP
Test protocol: EL assay: endothelial lipase activity with fluorescent substrate A10070 in DMPG vesicles
Type: biochemical
IC50: recorded values
Measurement kind: IC50 (nM)

1) CC(C)S(=O)(=O)C(C(=O)NCCS(N)(=O)=O)c1nc2cc(-c3ccc(F)nc3)ccc2s1 (stereo not shown) | 6.2
2) CC(C)(O)Cn1cc(-c2ccc3sc(C(C(=O)NCCS(N)(=O)=O)S(C)(=O)=O)nc3c2)ccc1=O (stereo not shown) | 3.5
3) COCCN(C)C(=O)c1ccc(-c2ccc3nc(C(C(=O)NCCS(N)(=O)=O)S(C)(=O)=O)sc3c2)cc1F (stereo not shown) | 2.8
4) CS(=O)(=O)C(C(=O)NCCS(N)(=O)=O)c1nc2cc(C(=O)NCCc3ccc(F)cc3)ccc2s1 (stereo not shown) | 37.4
